# TARGET_DESC: HIV-1 Env of isolate MGRM-G-027 (subtype G), on pseudovirus (HIV-1)
# METHOD_NOTES: cell-based or functional assay
Each entry below carries its recorded log10 of IC50 (µg/mL), neutralization of pseudovirus.
Lab note - IC50 (µg/mL), neutralization of pseudovirus converted to log10 from values in µg/mL.

>  <BINDER>
PGT-136 (antibody, V domains shown) VH: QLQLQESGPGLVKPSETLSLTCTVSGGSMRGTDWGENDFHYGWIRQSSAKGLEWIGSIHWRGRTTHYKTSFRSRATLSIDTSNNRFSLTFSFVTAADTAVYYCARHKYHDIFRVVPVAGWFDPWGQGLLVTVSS VL: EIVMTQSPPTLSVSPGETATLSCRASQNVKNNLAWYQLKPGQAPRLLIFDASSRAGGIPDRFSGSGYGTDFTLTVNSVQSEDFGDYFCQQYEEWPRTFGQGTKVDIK

>  <ENDPOINT_RESULT>
1.66

$$$$
>  <BINDER>
PGT-128 (antibody, V domains shown) VH: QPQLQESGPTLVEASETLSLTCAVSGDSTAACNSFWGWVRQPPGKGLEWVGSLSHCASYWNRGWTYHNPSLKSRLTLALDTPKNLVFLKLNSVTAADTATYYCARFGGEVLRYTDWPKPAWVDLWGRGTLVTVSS VL: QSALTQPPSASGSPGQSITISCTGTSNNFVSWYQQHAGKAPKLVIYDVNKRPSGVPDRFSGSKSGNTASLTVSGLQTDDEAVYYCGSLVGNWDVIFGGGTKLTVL

>  <ENDPOINT_RESULT>
-0.50

$$$$
>  <BINDER>
PGT-131 (antibody, V domains shown) VH: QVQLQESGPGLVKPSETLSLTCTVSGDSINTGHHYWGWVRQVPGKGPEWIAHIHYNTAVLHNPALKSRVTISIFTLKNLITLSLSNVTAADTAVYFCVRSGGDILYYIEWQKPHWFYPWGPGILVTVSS VL: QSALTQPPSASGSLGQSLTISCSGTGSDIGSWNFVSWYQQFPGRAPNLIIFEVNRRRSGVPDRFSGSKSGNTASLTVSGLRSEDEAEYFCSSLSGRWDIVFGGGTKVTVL

>  <ENDPOINT_RESULT>
0.46

$$$$
>  <BINDER>
PGT-135 (antibody, V domains shown) VH: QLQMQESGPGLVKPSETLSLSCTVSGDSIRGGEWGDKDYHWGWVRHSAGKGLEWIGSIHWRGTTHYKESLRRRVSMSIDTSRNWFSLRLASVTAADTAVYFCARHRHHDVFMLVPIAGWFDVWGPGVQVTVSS VL: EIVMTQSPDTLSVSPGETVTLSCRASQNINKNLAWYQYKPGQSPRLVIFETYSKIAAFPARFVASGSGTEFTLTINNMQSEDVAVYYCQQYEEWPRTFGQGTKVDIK

>  <ENDPOINT_RESULT>
-1.21

$$$$

Attention now shifts to the item below.
[Q] // query log10 of IC50 (µg/mL), neutralization of pseudovirus value for entry PGT-126 (antibody, V domains shown) VH: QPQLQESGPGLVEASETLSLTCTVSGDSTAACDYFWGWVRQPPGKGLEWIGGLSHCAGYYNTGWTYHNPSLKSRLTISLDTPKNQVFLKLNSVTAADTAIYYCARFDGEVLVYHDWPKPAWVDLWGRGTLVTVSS VL: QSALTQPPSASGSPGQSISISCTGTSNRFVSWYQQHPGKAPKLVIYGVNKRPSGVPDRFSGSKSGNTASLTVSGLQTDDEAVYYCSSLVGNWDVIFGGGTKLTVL
[A] -0.06
